assay: Fourteen-day repeat-dose toxicity study in beagle dogs; assay type: in vivo, dog; conditions: female, beagle, dog, in vivo, po, 35 mg, dog, females, 35 mg, Day 1
recordedMetric: Cmax (ng/mL)

molecule	observedValue
C[C@@H]1CN(Cc2ncccn2)C[C@H]1c1cn2c(C3CCOCC3)ncc2c(=O)[nH]1 (single isomer, unassigned) [Compound P3.1]	5180

----------
experiment: in vivo; conditions: male, Crl:WI(Han), rat, po, 250 mg/kg/day, AUC0-24

compound	unit	AUC(0-t)
C[C@@H]1CN(Cc2ncccn2)C[C@H]1c1cn2c(C3CCOCC3)ncc2c(=O)[nH]1 (single isomer, unassigned) [Compound P3.1]	µg·h/mL	226

----------
experiment: Pharmacokinetics of single oral and IV dose in CD1 mice; format: in vivo; settings: mouse, blood; CD1 mice, 10 mg/kg oral

compound	AUC(0-t) (ng·h/mL)
C[C@@H]1CN(Cc2ncccn2)C[C@H]1c1cn2c(C3CCOCC3)ncc2c(=O)[nH]1 (single isomer, unassigned) [Compound P3.1]	3440

----------
test: Pharmacokinetics of single oral and IV dose in CD1 mice; type: in vivo; conditions: CD1, mouse, plasma, po, 10 mg/kg; read-out: oral bioavailability Flast
recordedMetric: bioavailability (%)

molecule	recordedMetric	unit	observedValue
C[C@@H]1CN(Cc2ncccn2)C[C@H]1c1cn2c(C3CCOCC3)ncc2c(=O)[nH]1 (single isomer, unassigned)	bioavailability	%	44.6

----------
test: Fourteen-day repeat-dose toxicity study in beagle dogs; type: in vivo, dog; settings: female, beagle, dog, in vivo, po, 10 mg, dog, females, 10 mg, Day 14

compound	unit	Cmax
C[C@@H]1CN(Cc2ncccn2)C[C@H]1c1cn2c(C3CCOCC3)ncc2c(=O)[nH]1 (single isomer, unassigned)	µg/mL	3.78

----------
Assay: Pharmacokinetics of single oral and IV dose in Sprague Dawley rats
Format: in vivo
Settings: rat, blood; Sprague Dawley rats, 3 mg/kg IV
Method: Blood samples were taken at 2 minutes (IV only), then 8, 15, 30 minutes, and 1, 2, 4, 8, and 24 hours after dosing and analyzed for key PK parameters. In the rats, brain samples were taken at 24 hours and analyzed for Compound P3.1. […]
recordedMetric: MRT (h)

compound	recordedMetric	observedValue
C[C@@H]1CN(Cc2ncccn2)C[C@H]1c1cn2c(C3CCOCC3)ncc2c(=O)[nH]1 (single isomer, unassigned)	MRT	1.44

----------
assay: Fourteen-day repeat-dose toxicity study in beagle dogs; format: in vivo, dog; conditions: female, beagle, dog, in vivo, po, 10 mg, dog, females, 10 mg, Day 1

molecule	Cmax, ng/mL
C[C@@H]1CN(Cc2ncccn2)C[C@H]1c1cn2c(C3CCOCC3)ncc2c(=O)[nH]1 (single isomer, unassigned) [Compound P3.1]	1970

----------
test: Fourteen-day repeat-dose toxicity study in beagle dogs; assay type: in vivo, dog; conditions: female, beagle, dog, in vivo, po, 75 mg/kg/day, dog, females, 75 mg, Day 1

compound	Cmax [ng/mL]
C[C@@H]1CN(Cc2ncccn2)C[C@H]1c1cn2c(C3CCOCC3)ncc2c(=O)[nH]1 (single isomer, unassigned)	13200

----------
assay: Pharmacokinetics of single oral and IV dose in Sprague Dawley rats; assay type: in vivo; details: rat, blood; Sprague Dawley rats, 3 mg/kg IV

compound	AUC(0-t) [ng·h/mL]
C[C@@H]1CN(Cc2ncccn2)C[C@H]1c1cn2c(C3CCOCC3)ncc2c(=O)[nH]1 (single isomer, unassigned)	3110
